molecules and their reported normalized growth
Assay: chemical genetic growth profiling, strain panel (AID 1159580);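 note: tested at 20 µM; growth read once vehicle control cultures reached saturation at 30 °C; 1 = growth at the plate median or of vehicle wells; lower values mean less growth of the strain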
Details: S. cerevisiae deletion strains, growth OD, locus YGL253W, strain hxk2, active compounds read low
Screen size: about 5,500 compounds; about 2,000 (36%) were called active. Another 18% or so got no clear call; they are omitted. This is one part of the list.
Returns: the value as a bare number; no unit string appended.

// worked examples, normalized growth included
COc1ccc(C(=O)c2ccccc2)c(O)c1: 0.686
C[CH2][Hg][S]c1ccccc1C(=O)O: 0.0514
COc1ccc(C(=O)c2ccccc2O)c(O)c1: 0.799
CC(C)(C)CC(C)(C)c1ccc(OCCOCC[N+](C)(C)Cc2ccccc2)cc1: 0.058
CCSC(=N)N: 1.02

The molecule listed as "OC(CCN1CCCCC1)(c1ccccc1)c1ccccc1" shows normalized growth equal to 1.02

The molecule listed as "CCC1(c2ccccc2)C(=O)NCNC1=O" shows normalized growth equal to 1

The molecule listed as "C[C@@H]1O[C@@H](O[C@H]2[C@@H](Oc3cc(O)c4c(c3)O[C@H](c3ccc(O)cc3)CC4=O)O[C@H](CO)[C@@H](O)[C@@H]2O)[C@H](O)[C@H](O)[C@H]1O" shows normalized growth equal to 0.977

The molecule listed as CCC1(C)CC(=O)NC1=O (centres undefined) shows normalized growth equal to 0.981

----------
Assay: chemical genetic growth profiling, strain panel (AID 1159580)
Settings: S. cerevisiae deletion strains, growth OD, locus YER167W, strain BCK2, active compounds read low
Hit rate of the full screen: of about 5,500 compounds, about 2,000 (36%) were called active. Roughly 18% stayed inconclusive and do not appear here. Some of the results follow.
quantity: normalized growth
Returns: the value as a bare number; no unit string appended.

The compound listed as CC(=O)O[C@@](C)(CCC=C(C)C)C1CC=C(C)CC1 (stereo partly drawn) shows normalized growth equal to 1

The compound listed as "O=C(O)c1cc(=O)c2ccc(Cl)cc2[nH]1" shows normalized growth equal to 0.995

The compound listed as "COC(=O)COc1cc(Cl)c(Cl)cc1Cl" shows normalized growth equal to 0.975

----------
Test: chemical genetic growth profiling, strain panel (AID 1159580)
Details: S. cerevisiae deletion strains, growth OD, locus YNL322C, strain KRE1
Out of some 5,500 compounds screened, about 2,000 (36%) were called active. Roughly 18% stayed inconclusive and do not appear here. Cut-off read from the data, not from the text of the source: active = normalized growth mostly below about 0.91 (no sharp cut-off); inconclusive = no clear call, values can overlap the other calls; inactive = mostly above about 0.92. Some of the results follow.
Write down the outcome that applies. Available outcomes: active, inactive

CCCN1CCC[C@@H]2Cc3nc(N)ncc3C[C@H]21: inactive
CCC1(c2ccccc2)C(=O)NCNC1=O: inactive
O=C(c1ccccc1)C1CCN(c2ccc(C(F)(F)F)cc2[N+](=O)[O-])CC1: inactive
O=C(O)C1c2ccccc2Oc2ccccc21: inactive
C[CH2][Hg][S]c1ccccc1C(=O)O: active

[ask] Could you check what this test reported for "COc1ccccc1C1CCN(C(=O)c2ccc(F)cc2)CC1" ?
[reply] inactive

[ask] Could you check what this test reported for CC(C)CC1C(=O)N2CCC[C@H]2C2(O)O[C@](NC(=O)C3C=C4c5cccc6[nH]c(Br)c(c56)C[C@H]4N(C)C3)(C(C)C)C(=O)N12 (some centres undefined) ?
[reply] inactive

----------
compounds and their reported normalized growth
Assay: chemical genetic growth profiling, strain panel (AID 1159580)
Conditions: S. cerevisiae deletion strains, growth OD, locus YLR058C, strain SHM2, active compounds read low
Screen size: about 5,500 compounds; about 2,000 (36%) were called active. Not shown: some 18% with an inconclusive outcome. Some of the results follow.
Returns: the value as a bare number; no unit string appended.

// worked examples, normalized growth included
COc1ccc2c(c1)[C@@]1(C)CCC(=O)C[C@H]1CC2: 0.995
COc1cc(OC)c2c(c1)O[C@H](c1ccc(OC)c(OC)c1)[C@@H](O)C2: 1.02
CC(C)=CCc1c(O)cc(C)oc1=O: 1.01

The compound listed as CNC1(C)C2CCC(C2)C1(C)C (stereo unspecified) shows normalized growth equal to 0.979

The compound listed as "Cc1ccc2c(c1)CC[C@H]1CC(=O)CC[C@]21C" shows normalized growth equal to 0.998

The compound listed as "COc1ccc(C(=O)c2ccccc2O)c(O)c1" shows normalized growth equal to 0.919

----------
Assay: chemical genetic growth profiling, strain panel (AID 1159580)
Conditions: S. cerevisiae deletion strains, growth OD, locus YPL256C, strain CLN2, active compounds read low
In all, about 5,500 compounds went through this assay and about 2,000 (36%) were called active. Not shown: some 18% with an inconclusive outcome. This is one part of the list. Where a SMILES comes first, the peptide text is derived from it.
quantity: normalized growth
Returns: the value as a bare number; no unit string appended.

CC(C)C[C@H](N)C(=O)N[C@@H](C)C(=O)O (H-Leu-Ala-OH): 1.02

Below: the item to evaluate.
The molecule listed as "O=C(Nc1cc(Cl)cc(Cl)c1)Nc1cc(-c2ccco2)[nH]n1" shows normalized growth equal to 0.14

----------
compounds and their reported normalized growth
Assay: chemical genetic growth profiling, strain panel (AID 1159580);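 note: tested at 20 µM; growth read once vehicle control cultures reached saturation at 30 °C; 1 = growth at the plate median or of vehicle wells; lower values mean less growth of the strain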
Settings: S. cerevisiae deletion strains, growth OD, locus YOR106W, strain vam3, active compounds read low
In all, about 5,500 compounds went through this assay and about 2,000 (36%) were called active. Roughly 18% stayed inconclusive and do not appear here. The list shows a part of the results.

The compound listed as "CN=C(NC#N)NCCSCc1nc[nH]c1C" shows normalized growth equal to 0.979 (inactive)

----------
Assay: chemical genetic growth profiling, strain panel (AID 1159580);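 note: tested at 20 µM; growth read once vehicle control cultures reached saturation at 30 °C; 1 = growth at the plate median or of vehicle wells; lower values mean less growth of the strain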
Conditions: S. cerevisiae deletion strains, growth OD, locus YKL009W, strain mrt4, active compounds read low
Screen size: about 5,500 compounds; about 2,000 (36%) were called active. Another 18% or so got no clear call; they are omitted. Some of the results follow.
quantity: normalized growth
Returns: the value as a bare number; no unit string appended.

// worked examples, normalized growth included
COc1ccc(C[C@H]2NC[C@H](O)[C@H]2OC(C)=O)cc1: 0.966
CCC1(C)CC(=O)NC1=O (stereo unspecified): 1.03
CC1(C)C2CC[C@]3(C)C(C(=O)C=C4[C@@H]5C[C@@](C)(C(=O)O)CC[C@]5(C)CC[C@]43C)[C@@]2(C)CC[C@@H]1O (stereo partly specified): 0.864
COc1ccc(CC2c3cc(OC)c(OC)cc3CCN2C)cc1OC (stereo unspecified): 0.995
COc1ccc2c(c1)OC[C@@H](Cc1ccc(OC)c(OC)c1)[C@@H]2O: 0.985

The molecule listed as "NC(=O)N1c2ccccc2CC(=O)c2ccccc21" shows normalized growth equal to 1.01

The molecule listed as "CC(=C(CCOP(=O)(O)O)SC(=O)c1ccccc1)N(C=O)Cc1cnc(C)nc1N" shows normalized growth equal to 1.01

The molecule listed as CC1(C)C2CC[C@]3(C)C(C(=O)C=C4[C@H]5C[C@@](C)(C(=O)O)CC[C@]5(C)CC[C@]43C)[C@@]2(C)CC[C@@H]1O (stereo partly specified) shows normalized growth equal to 0.921

The molecule listed as "Cn1cc[nH]c1=S" shows normalized growth equal to 0.966

The molecule listed as "C1CCc2nnnn2CC1" shows normalized growth equal to 1.03

The molecule listed as "COc1cc(OC)c2c(c1)O[C@H](c1ccc(OC)c(OC)c1)[C@@H](O)C2" shows normalized growth equal to 1.05

----------
Experiment: chemical genetic growth profiling, strain panel (AID 1159580);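 note: tested at 20 µM; growth read once vehicle control cultures reached saturation at 30 °C; 1 = growth at the plate median or of vehicle wells; lower values mean less growth of the strain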
Details: S. cerevisiae deletion strains, growth OD, locus YHR079C, strain IRE1 (second series)
The campaign covered roughly 5,500 compounds. About 2,000 (36%) were called active. Roughly 18% stayed inconclusive and do not appear here. Cut-off read from the data, not from the text of the source: active = normalized growth mostly below about 0.91 (no sharp cut-off); inconclusive = no clear call, values can overlap the other calls; inactive = mostly above about 0.92. Some of the results follow.
Write down the outcome that applies. Available outcomes: active, inactive

[ask] Could you check what this test reported for O=C(O)C1CC([C@@H]2CCCCN2)CN2CCCCC12 (stereo partly specified) ?
[reply] inactive

[ask] Could you check what this test reported for CC(=O)O[C@]1(C(C)=O)CCC2C3C[C@H](C)C4=CC(=O)CC[C@]4(C)C3CC[C@@]21C (stereo partly specified) ?
[reply] inactive

[ask] Could you check what this test reported for "N#Cc1c(Cl)c(Cl)c(Cl)c(C#N)c1Cl" ?
[reply] inactive

[ask] Could you check what this test reported for CNC1(C)C2CCC(C2)C1(C)C (stereo unspecified) ?
[reply] inactive

[ask] Could you check what this test reported for CC1(C)S[C@@H]2[C@H](NC(=O)[C@H](NC(=O)N3CCNC3=O)c3ccccc3)C(=O)N2C1C(=O)O (stereo partly specified) ?
[reply] inactive

[ask] Could you check what this test reported for CC(=O)[C@H]1CCC2C3C[C@H](C)C4=CC(=O)CC[C@]4(C)C3[C@@H](O)C[C@@]21C (stereo partly specified) ?
[reply] inactive

[ask] Could you check what this test reported for CCC(C(=O)O)c1ccccc1 (stereo unspecified) ?
[reply] inactive

[ask] Could you check what this test reported for "C/C=C(/C(=C/C)c1ccc(O)cc1)c1ccc(O)cc1" ?
[reply] active

[ask] Could you check what this test reported for "C=CC(C)(C)c1c2c(c(O)c3c(=O)c4ccc(O)c(O)c4oc13)C=CC(C)(C)O2" ?
[reply] inactive

[ask] Could you check what this test reported for CC(=O)O[C@@](C)(CCC=C(C)C)C1CC=C(C)CC1 (stereo partly specified) ?
[reply] inactive

[ask] Could you check what this test reported for "Cc1ccc(O)cc1" ?
[reply] inactive
